- Tested on: HS 578T breast
- Test description: NCI-60 one-dose screen, 48 h
- Recorded conditions: 10 µM unless noted
The panel holds about 83,000 compounds, 20% with a hit somewhere; the sample as a whole holds those more often. Active and inactive are the calls of the source. How the source made its calls: active means growth percent below 10; inactive means the rest.
Classes to choose from: TRUE = active, FALSE = inactive

| Compound | Class assignment |
| --- | --- |
| CSc1nc(=S)c2nc(SC)n(-c3ccccc3)c2[nH]1 | FALSE |
| CC1(C)NCCC[C@]2(C)[C@H]3C=CC4=C5C[C@](C)(CO)CC[C@]5(C)CC[C@@]4(C)[C@]3(C)CC[C@@H]12 | TRUE |
| CCOC(=O)c1cnc2ccc(Br)cc2c1Nc1cccc(S(N)(=O)=O)c1 | FALSE |
| C=C(C)[C@@H]1CC[C@]2(C(N)=O)CC[C@]3(C)[C@H](CC[C@@H]4[C@@]5(C)C/C(=C/c6cccnc6)[C@H](O)C(C)(C)[C@@H]5CC[C@]43C)[C@@H]12 | FALSE |
| CCOC(=O)c1nn(C2CCCCO2)c2ccc(NC(=O)CN3CCCC3)cc12 (stereo not drawn) | FALSE |

How did this test come out for COc1cc(Cl)cc(-c2nn(C(=O)NS(=O)(=O)c3ccccc3)cc2-c2ccncc2)c1 ?
FALSE

How did this test come out for O=C(Oc1ccc(Cl)cc1[N+](=O)[O-])Oc1ccc(Cl)cc1[N+](=O)[O-] ?
FALSE

How did this test come out for CC(C)C1=NOC(=O)C1=Cc1cn(-c2ccccc2)nc1-c1cccc([N+](=O)[O-])c1 ?
FALSE

How did this test come out for Fc1cc2[nH]ncc2c2c3c(c(-c4cn[nH]c4C(F)(F)F)nc12)C1CCC3C1 (stereo not drawn) ?
TRUE

How did this test come out for COc1ccc(NCc2cn(-c3ccc(C(=O)O)cc3)nc2-c2ccc(C(=O)O)cc2)cc1C(F)(F)F ?
FALSE

How did this test come out for COc1c(B(O)O)cccc1-c1nc2ccc3[nH]ncc3c2c2c1CCC2 ?
FALSE

How did this test come out for CC[C@@](C)(NC(=O)[C@H](C)NC(=O)CCNC(=O)C(C)(C)NC(=O)[C@H](C)NC(=O)[C@@H]1CCCN1C(=O)[C@@](C)(CC)NC(=O)[C@H](Cc1ccccc1)NC(=O)C1CCCN1C(=O)C(C)(C)NC(=O)C1CCCN1C(=O)C(C)(C)NC(C)=O)C(=O)NCCC(=O)N[C@@H](CC(C)C)C(=O)NC(C)(C)C(=O)NCCC(=O)N[C@@H](CC(C)C)C(=O)NC(C)(C)C(=O)NC(C)(C)C(=O)N[C@@H](CC(C)C)C(=O)NCCC(=O)NCO (stereo partly drawn) ?
TRUE

How did this test come out for Cc1ccc(C2=C/C(=C/c3ccc(Br)cc3)C(=O)N2CCc2ccc(S(N)(=O)=O)cc2)cc1 ?
FALSE

How did this test come out for COc1ccc(C2CC(c3cc(OC)c(OC)c(OC)c3)=NN2C(C)=O)cc1OCC(=O)Nc1nc2ccc(C(F)(F)F)cc2s1 (stereo not drawn) ?
FALSE

How did this test come out for Cc1ccc(-c2cc(O)c(-c3ccc(C)cc3C)cc2O)c(C)c1 ?
FALSE

How did this test come out for COc1ccc(C(C(=O)O)c2ccc(OC)cc2)cc1 ?
FALSE

How did this test come out for COc1ccc(NC(=O)Nc2ccc(-c3cccnc3)cc2N2CCC(CO)CC2)cc1 ?
FALSE

How did this test come out for CCOC(=O)c1nn(C2CCCCO2)c2ccc(NC(=O)Cn3nnc4ccccc43)cc12 (stereo not drawn) ?
FALSE

How did this test come out for CO[C@H]1CC[C@@]2(C)C(=CC[C@H]3[C@@H]4C[C@H](O)C[C@@]4(C)CC[C@@H]32)C1 ?
FALSE

How did this test come out for CCN(CC)CCSC(=O)C(O)(c1ccccc1)C1CCCC1 (stereo not drawn) ?
FALSE

====

- Tested on: NCI-H460 lung
- Test description: NCI-60 one-dose screen, 48 h (100 = growth as untreated, 0 = no growth, -100 = all killed)
- Recorded conditions: 10 µM unless noted
The panel holds about 83,000 compounds, 20% with a hit somewhere; the sample as a whole holds those more often.
Label criterion met when growth >= 10%; otherwise criterion not met.

| Structure notation | Class assignment |
| --- | --- |
| Cc1cc(C)c(O)c(CNCCCCCCNCc2cc(C)cc(C)c2O)c1 | criterion not met |
| CCOC(=O)c1sc2nc(-c3cc(OC)c(OC)c(OC)c3)nc(N3CCOCC3)c2c1C | criterion met |
| CC(C)c1ccc(C(=O)Nc2sc3c(c2C#N)CCC(=O)C3)cc1 | criterion not met |

Hi, just wondering whether O=C1/C(=C\c2cccn2Cc2ccccc2)c2ccccc2N1c1c(Cl)cccc1Cl shows growth of 10% or higher.
criterion met

====

- System: COLO 205 colon
- Test description: NCI-60 one-dose screen, 48 h
- Recorded conditions: 10 µM unless noted
The panel holds about 83,000 compounds, 20% with a hit somewhere; the sample as a whole holds those more often. Activity calls are given as the source filed them. How the source made its calls: active means growth percent below 10; inactive means the rest.
Classes to choose from: label 1 = active, label 0 = inactive

For orientation, consider the following solved cases.
| Molecule | Class assignment |
| --- | --- |
| CCCSc1nc(N)nc2nc[nH]c12 | label 0 |
| [2H]C1([2H])CCN(C(=O)C2CC2)c2cc(NS(=O)(=O)c3ccc(-c4cccc(C(N)=O)c4)cc3)ccc21 | label 0 |
| COc1cc2c(O)n(CCCN3CCOCC3)c3c4cnc5cccc(c(=O)c3c2cc1OC)c54 | label 0 |
| O=C(Nc1cc(F)cc2cccnc12)c1cnc(N2CCNCC2)cn1 | label 0 |
| COc1ccc(C2=C(c3cn(C)c4ccccc34)C(=O)OC2)cc1OC | label 0 |

How did this test come out for CCOC(=O)C1=C(C(=O)c2ccc(Br)cc2)C(c2ccc(Br)cc2)NC(=S)N1 (centres undefined) ?
label 0

How did this test come out for Cc1cccc(C[C@H](NC(=O)Nc2ccc(C)cc2F)C(=O)N[C@@H]2C(=O)N3C[C@H](O)C[C@H]3C(=O)N3CCN(C)C[C@H]3C(=O)N[C@@H](C)C(=O)N3C[C@H](C)C[C@H]3C(=O)O[C@H]2C)c1 ?
label 0

How did this test come out for O=C(O)c1cccc(CN2CCN(c3cc4c(cc3F)c(=O)c(C(=O)O)cn4C3CC3)CC2)c1O ?
label 0

How did this test come out for CC(C)=CC/C=C(/C)[C@H]1CC[C@]2(C)[C@@H]1CC[C@@H]1[C@@]3(C)CCCNC(C)(C)[C@@H]3CC[C@]12C ?
label 1

====

- Test system: COLO 205 colon
- Test description: NCI-60 one-dose screen, 48 h
- Recorded conditions: 10 µM unless noted
About 83,000 compounds went through this panel and 20% of them were active in at least one assay; those are over-represented in the sample as a whole. Active and inactive are the calls of the source. How the source made its calls: active means growth percent below 10; inactive means the rest.
Classes to choose from: active, inactive

For orientation, consider the following solved cases.
| Compound | Class assignment |
| --- | --- |
| COc1ccc(C(=O)c2nccc3cc(OC)c(OC)cc23)cc1OC | inactive |
| COc1ccc(/C=C/C(=C/c2c(O)[nH]c3cc(Br)ccc23)N=O)cc1 | inactive |

How did this test come out for CCN(CCNc1ccc(C)c2sc3cc(Cl)ccc3c(=O)c12)CC(C)O (centres undefined) ?
active

How did this test come out for CCOC(=O)c1cc(C#N)n2ncc3ccccc3c12 ?
inactive

How did this test come out for Cn1cc(-c2noc(-c3cn(C)c4ncc(F)cc34)n2)c2cc(Cl)ccc21 ?
inactive

How did this test come out for Cn1cc(-c2noc(-c3cn(C)c4ncc(F)cc34)n2)c2cc(Br)ccc21 ?
inactive

====

- System: 786-0 renal
- Test description: NCI-60 one-dose screen, 48 h
- Recorded conditions: 10 µM unless noted
About 83,000 compounds went through this panel and 20% of them were active in at least one assay; those are over-represented in the sample as a whole. Calls of active or inactive are those of the source. How the source made its calls: active means growth percent below 10; inactive means the rest.
Classes to choose from: 1 (yes) = active, 0 (no) = inactive

| Molecule | Class assignment |
| --- | --- |
| COc1ccc(/C=C(/C2=NCCN2)n2ccc3ccccc32)cc1 | 0 (no) |
| C=CCCCCCCCCC(=O)OC(C)C | 0 (no) |
| CCOC(=O)c1sc2nc(-c3cc(OC)c(OC)c(OC)c3)nc(N3CCOCC3)c2c1C | 0 (no) |
| CCOC(=O)c1cnc2ccc(Br)cc2c1Nc1cccc(S(N)(=O)=O)c1 | 0 (no) |
| CC[C@@H]1NC(=O)[C@@H]2CCCCN2C(=O)[C@@H]2CCCN2C(=O)[C@@H](NC(=O)[C@H](Cc2cc(F)cc(F)c2)NC(=O)Nc2ccc(C3CC3)cc2F)[C@H](C)OC(=O)[C@@H]2C[C@@H](C)CN2C1=O | 0 (no) |

How did this test come out for COc1cc(/C=C/C(=O)/C=C/c2ccc(-n3ccnc3C)cc2)ccc1O ?
0 (no)

How did this test come out for Cc1nc(Cl)c2c(n1)N(C)c1ccc(Cl)cc1C(C)C2 (stereo not given) ?
0 (no)

How did this test come out for O=C(NCCCNC(=O)OCc1ccc2cccc(O)c2n1)OCc1ccc2cccc(O)c2n1 ?
0 (no)

How did this test come out for Cc1ccc(NC(=O)N[C@@H](Cc2cc(F)cc(F)c2)C(=O)N[C@@H]2C(=O)N3CCC[C@H]3C(=O)N3CCOC[C@H]3C(=O)N[C@@H](C)C(=O)N3C[C@H](C)C[C@H]3C(=O)O[C@H]2C)cc1 ?
0 (no)

How did this test come out for Cn1cc(-c2noc(C(=O)c3cn(C)c4ncccc34)n2)c2ccccc21 ?
0 (no)

How did this test come out for O=c1[nH]c2cc(Cl)c(Cl)cc2n2cc3ncccc3c12 ?
0 (no)

How did this test come out for Cc1cnc([C@]23CC[C@@H](C)[C@H](C)[C@H]2C2=CC[C@@H]4[C@@]5(C)Cc6c([nH]c7ccccc67)C(C)(C)[C@@H]5CC[C@@]4(C)[C@]2(C)CC3)o1 ?
0 (no)

How did this test come out for COC(=O)[C@]1(C)CC[C@]2(C)CC[C@]3(C)C(=CC(=O)[C@@H]4[C@@]5(C)CCC(=O)NC(C)(C)[C@@H]5CC[C@]43C)[C@@H]2C1 ?
1 (yes)
